Target: T1, recombinant human RANKL (soluble, Gly136-Asp317, N-terminal 10 His, expressed in CHO cells) (human, UniProt O14788 136-317)
T1 construct: residues between secretion signal and His tag are not described; also called hRANKL; hRNAKL
T1 sequence: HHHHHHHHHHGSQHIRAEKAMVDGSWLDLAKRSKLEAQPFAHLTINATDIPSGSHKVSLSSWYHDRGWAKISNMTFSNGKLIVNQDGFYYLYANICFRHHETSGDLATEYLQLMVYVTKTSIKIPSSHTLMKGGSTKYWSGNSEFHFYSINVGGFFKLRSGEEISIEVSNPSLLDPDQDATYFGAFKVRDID
Assay: ELISA, hRANKL coated 1 µg/ml; concentration at 50% Bmax; Plate#01
attribute-measured: EC50

G2 (antibody, human IgG2, kappa, V domains shown, 293F cells) VH: QVQLVQSGAELKKPGASVKLSCKASGYTFTTYWLQWVRQAPGQGLEWMGAIYPGPGNTKYTQKFKDRFTITADKSKSTAYMQLNSLKSEDSAVYYCARRGSRRGIAYWGQGTLVTVSA VL: NIVLTQSPASLSVSLGQRATISCRASESVDSYGRSFMHWYQQRPGQAPRLLIYLASNLESGVPARFSGSGSRTDFTLTISSVEAEDEATYYCQQDNEDPYTFGGGTKLEIKG	2.55 ng/mL
G6 (antibody, human IgG2, kappa, V domains shown, 293F cells) VH: QVQLVQSGAELVQPGASVKLSCKASGYTFTTYWLQWVRQTPGQGLEWMGAIYPGPGNTKYTQKFKDRVTITADTSTSTAYMQLNSLRSEDSAVYYCARRGSRRGIAYWGQGTLVTVSA VL: NIVLTQSPASLSVSLGQRATISCRASESVDSYGRSFMHWYQQRPGQAPRLLIYLASNLESGVPARFSGSGSRTDFTLTISSVEAEDEATYYCQQDNEDPYTFGGGTKLEIKG	1.47 ng/mL
G4 (antibody, human IgG2, kappa, V domains shown, 293F cells) VH: QVQLVQSGAELKKPGASVKLSCKASGYTFTTYWLQWVRQAPGQGLEWMGAIYPGPGNTKYTQKFKDRFTITADKSKSTAYMQLNSLKSEDSAVYYCARRGSRRGIAYWGQGTLVTVSA VL: NIVLTQSPASLSVSLGQRATISCRASESVDSYGRSFMHWYQQRPGQAPKLLIYLASNLESGVPARFSGSGSRTDFTLTISSVEAEDEATYYCQQDNEDPYTFGGGTKLEIKG	1.95 ng/mL
G7 (antibody, human IgG2, kappa, V domains shown, 293F cells) VH: QVQLVQSGAELVQPGASVKLSCKASGYTFTTYWLQWVRQTPGQGLEWMGAIYPGPGNTKYTQKFKDRVTITADTSTSTAYMQLNSLRSEDSAVYYCARRGSRRGIAYWGQGTLVTVSA VL: NIVLTQSPASLSVSLGQRATISCRASESVDSYGRSFMHWYQQKPGQAPKLLIYLASNLESGVPSRFSGSGSRTDFTLTISAVEAEDAATYYCQQDNEDPYTFGGGTKLEIKG	1.82 ng/mL
G5 (antibody, human IgG2, kappa, V domains shown, 293F cells) VH: QVQLVQSGAELKKPGASVKLSCKASGYTFTTYWLQWVRQAPGQGLEWMGAIYPGPGNTKYTQKFKDRFTITADKSKSTAYMQLNSLKSEDSAVYYCARRGSRRGIAYWGQGTLVTVSA VL: NIVLTQSPASLSVSLGQRATISCRASESVDSYGRSFMHWYQQKPGQAPKLLIYLASNLESGVPSRFSGSGSRTDFTLTISRVEAEDAATYYCQQDNEDPYTFGGGTKLEIKG	2.21 ng/mL
G1 (antibody, human IgG2, kappa, V domains shown, expressed in 293F cells; also called murine antibody G1; mouse antibody (G1)) VH: QVQLQQSGAELASPGASVKLSCKASGYTFTTYWLQWVKQRPGQGLEWIGAIYPGPGNTKYTQKFKDKATLTADKSASTAYMQLNSLTSEDSAVYYCARRGSRRGIAYWGQGTLVTVSA VL: NIVLTQSPASLAVSLGQRATISCRASESVDSYGRSFMHWYQQRPGQPPTLLIYLASNLESGVPVRFSGSGSRTDFTLTIDPVEADDAATYYCQQDNEDPYTFGGGTKLEIKG	1.47 ng/mL
G3 (antibody, human IgG2, kappa, V domains shown, 293F cells) VH: QVQLVQSGAELKKPGASVKLSCKASGYTFTTYWLQWVRQAPGQGLEWMGAIYPGPGNTKYTQKFKDRFTITADKSKSTAYMQLNSLKSEDSAVYYCARRGSRRGIAYWGQGTLVTVSA VL: NIVLTQSPASLSVSLGQRATISCRASESVDSYGRSFMHWYQQKPGQAPKLLIYLASNLESGVPSRFSGSGSRTDFTLTISAVEAEDAATYYCQQDNEDPYTFGGGTKLEIKG	1.87 ng/mL
